# protocol text: In vivo pharmacokinetic experiments in beagle dogs
# applied conditions: male, plasma, iv; beagle dog, 1 mg/kg i.v.
measurement kind: MRT (h)
Give bare numbers, in h.

MRT in this record for CN[C@@]1(c2ccc(C(F)(F)F)cc2)CCC[C@](C)(O)C1=O.Cl : 1.84

* * *

# protocol text: Solid-state chemical stability under different storage conditions (liquid chromatography)
# Assay type: physicochemical
# applied conditions: 40° C., 75% RH; 5 days
# Experimental: The HPLC conditions were as follows: Configuration of test solution: appropriate amount of sample was dissolved and diluted with a diluent (0.03 mol/L phosphate buffer-acetonitrile (80:20)) to make 1 mg/mL solution. […]
measurement kind: Stability of solid state compound, 5 Days (%)

Parameter requested: Stability of solid state compound, 5 Days (%). Apply to each item below.
1. CN[C@@]1(c2cccc(C#N)c2)CCC[C@](C)(O)C1=O.Cl [Compound 64]
2. CNC1(c2cccc(OC(F)(F)F)c2)CCCC(O)C1=O.Cl (stereo not drawn) [Comparative compound 11, reference compound]

1: 99.88%; 2: 87.8%

* * *

# protocol text: Solid-state chemical stability under different storage conditions (liquid chromatography)
# Type: physicochemical
# applied conditions: 25° C., 60% RH; 10 days
Please provide measured Stability of solid state compound, 10 Days (%) for the entries that follow.
Numbers only, in %.

- compound: "CC(=O)N[C@@]1(c2ccc(C(F)(F)F)cc2)CCC[C@@H](O)C1=O [Comparative compound 10, reference compound]"
  observed value: 99.69
- compound: "CCN[C@@]1(c2ccc(C(F)(F)F)cc2)CCC[C@@H](O)C1=O.Cl [Comparative compound 9, reference compound]"
  observed value: 96.8
- compound: "CCN[C@@]1(c2ccc(C(F)(F)F)cc2)CCC[C@](C)(O)C1=O.Cl"
  observed value: 99.69

We now examine a further compound.
Stability of solid state compound, 10 Days (%) in this record for CC(=O)N[C@@]1(c2ccc(C(F)(F)F)cc2)CCC[C@](C)(O)C1=O : 99.65

* * *

# protocol text: Solid-state chemical stability under different storage conditions (liquid chromatography)
# Format: physicochemical
# applied conditions: 40° C., 75% RH; 10 days
measurement kind: Stability of solid state compound, 10 Days (%)
Express your answer as a number followed by its unit.

- compound: "CN[C@@]1(c2ccc(C(F)(F)F)cc2)CCC[C@@](C)(O)C1=O.Cl [Compound 71]"
  observed value: "99.46%"
- compound: "CN[C@@]1(c2cccc(OC(F)(F)F)c2)CCC[C@](C)(O)C1=O.Cl [Compound 68]"
  observed value: "99.12%"
- compound: "CNC1(c2cccc(OC(F)(F)F)c2)CCCC(C)(O)C1=O.Cl (stereo not shown) [Compound 67]"
  observed value: "99.73%"
- compound: "C[C@@]1(O)CCC[C@@](N)(c2ccc(C(F)(F)F)cc2)C1=O.Cl [Compound 52]"
  observed value: "99.89%"
- compound: "CN[C@@]1(c2cccc(C#N)c2)CCC[C@](C)(O)C1=O.Cl [Compound 64]"
  observed value: "99.89%"
- compound: "CNC1(c2cccc(C#N)c2)CCCC(C)(O)C1=O.Cl (stereo not shown) [Compound 63]"
  observed value: "99.66%"
- compound: "Cl.N[C@@]1(c2ccc(C(F)(F)F)cc2)CCC[C@@H](O)C1=O [Comparative compound 1, reference compound]"
  observed value: "98.74%"
- compound: "N[C@@]1(c2ccccc2Cl)CCC[C@@H](O)C1=O [(2R,6R)-HNK, reference compound]"
  observed value: "97.85%"
- compound: "CN[C@@]1(c2ccccc2Cl)CCC[C@@](C)(O)C1=O.Cl [Compound 70]"
  observed value: "97.84%"
- compound: "CNC1(c2c(F)cc(F)cc2F)CCCC(C)(O)C1=O.Cl (stereo not shown) [Compound 58]"
  observed value: "99.12%"

Parameter requested: Stability of solid state compound, 10 Days (%). Apply to each item below.
1. CC1(O)CCCC(N)(c2cccc(F)c2F)C1=O.Cl (stereo not shown) [Compound 48]
2. Cl.NC1(c2c(F)cc(F)cc2F)CCCC(O)C1=O (stereo not shown) [Comparative compound 13, reference compound]

1: 99.28%; 2: 97.05%

Parameter requested: Stability of solid state compound, 10 Days (%). Apply to each item below.
1. CNC1(c2cccc(OC(F)(F)F)c2)CCCC(O)C1=O.Cl (stereo not shown) [Comparative compound 11, reference compound]
2. CNC1(c2cccc(F)c2F)CCCC(C)(O)C1=O.Cl (stereo not shown) [Compound 65]
3. CN[C@@]1(c2ccc(C(F)(F)F)cc2)CCC[C@](C)(O)C1=O.Cl [Compound 73]
4. Cl.[2H]C([2H])([2H])N[C@@]1(c2ccc(C(F)(F)F)cc2)CCC[C@](C)(O)C1=O [Compound 76]

1: 75.44%; 2: 99.32%; 3: 99.88%; 4: 99.65%
